Recorded values, source patent US8541588B2.

molecular target: Nav1.7 (or SCN9A) channel; HEK cells stably transfected with hSCN9A (Homo sapiens); construct: expressed in transfected cells; experiment: Nav1.7 block, PatchXpress 7000 automated whole-cell voltage clamp, estimated IC50 (EIC50); assay type: cell-based; conditions: estimated IC50; hSCN9A HEK cells, PatchXpress platform; Examples 283-814
Classify: YES when IC50 is strictly less than 20 nM; NO when IC50 is not.

Q: Determine whether this compound shows IC50 lower than 20 nM (ties excluded): `Cn1nc(C(F)(F)F)cc1-c1ccc(Oc2ccc(S(=O)(=O)Nc3nccs3)cc2C#N)c(C#N)c1`
Ans: NO

Q: Repeat with `O=S(=O)(Nc1ncns1)c1cc(F)c(Oc2ccc(Cl)cc2-c2cn[nH]c2)cc1F`
Ans: YES

Q: // query: `N#Cc1cc(S(=O)(=O)Nc2ncns2)ccc1Oc1cc(F)c(Cl)cc1-c1cn[nH]c1`
Ans: YES

Q: Continue with `Cn1nccc1-c1cc(Br)ccc1Oc1ccc(S(=O)(=O)Nc2nccs2)cc1C#N`
Ans: YES

Q: Further, for `O=S(=O)(Nc1nccs1)c1ccc(Oc2ccc(Cl)cc2-c2cn[nH]c2)c(F)c1` ?
Ans: NO

Q: Another compound to look at: `Nc1cc(-c2cc(Cl)ccc2Oc2cc(F)c(S(=O)(=O)Nc3ccncn3)cc2Cl)ccn1`
Ans: YES

Q: Also, `CCn1nc(C(F)(F)F)cc1-c1ccc(Oc2ccc(S(=O)(=O)Nc3ncns3)cc2C#N)cc1` please.
Ans: NO

Q: Lookup `N#Cc1cc(S(=O)(=O)Nc2ncns2)ccc1Oc1ccc(Cl)cc1-c1ccnn1C1CNC1`
Ans: YES

----------
biological target: Nav1.7 (or SCN9A) channel; HEK cells stably transfected with hSCN9A (Homo sapiens); construct: expressed in transfected cells; test: Nav1.7 block, PatchXpress 7000 automated whole-cell voltage clamp, estimated IC50 (EIC50); format: cell-based; conditions: PatchXpress platform; hSCN9A HEK cells held at V1/2 of inactivation; estimated IC50
Task for the reader: assign each of the following compounds its reported IC50.
Quick note: give the figure in nM, leave out the unit.

Q: Record request: IC50 value, item N#Cc1cc(S(=O)(=O)Nc2ncc(Cl)s2)ccc1Oc1ccccc1Oc1ccncc1 [Example 135]
Ans: 730

Q: Next entry: N#Cc1cc(S(=O)(=O)Nc2nccs2)ccc1Oc1ccc(F)cc1-c1ccc(F)c(F)c1 [Example 158]
Ans: 310

Q: Same for O=S(=O)(Nc1ncns1)c1cc(F)c(Oc2ccccc2-c2ccccc2)cc1Cl [Example 267]
Ans: 190

Q: What do you get for COc1ccc(-n2cc(Oc3ccc(S(=O)(=O)Nc4ncc(Cl)s4)cc3C#N)c(C(C)C)n2)cc1 [Example 145] ?
Ans: 2000

Q: Queued: Cc1cc(Oc2ccc(S(=O)(=O)Nc3nccs3)cc2F)n(-c2ccccc2)n1 [Example 231]
Ans: 470

Q: Similarly, O=S(=O)(Nc1nncs1)c1ccc(Oc2ccccc2-c2ccccc2)c(F)c1 [Example 251] ?
Ans: 2540

Q: One more compound: CCc1ccc(-c2ncccc2Oc2ccc(S(=O)(=O)Nc3ncns3)cc2C#N)cc1 [Example 7]
Ans: 35900

Q: Input N#Cc1cc(S(=O)(=O)Nc2nccs2)ccc1Oc1ccc(F)cc1-c1ccnn1CC(F)(F)F [Example 175]
Ans: 540

Q: Try the compound CC(C)(C)n1nccc1-c1c(F)cccc1Oc1ccc(S(=O)(=O)Nc2ncns2)cc1C#N [Example 83]
Ans: 2450

Q: Here is the next compound: N#Cc1cc(S(=O)(=O)Nc2ncns2)ccc1Oc1cc(Cc2ccc(Cl)cc2)nn1CC(N)=O [Example 93]
Ans: 1570

Q: Field entry: N#Cc1cc(S(=O)(=O)Nc2nccs2)ccc1Oc1ccc(F)cc1-c1cccc(CCO)c1 [Example 153]
Ans: 60

Q: Item: O=S(=O)(Nc1cscn1)c1ccc(Oc2ccc(-c3ccccc3)cc2)c(F)c1 [Example 273]
Ans: 2170

Q: For O=S(=O)(Nc1nccs1)c1ccc(Oc2ccccc2C2CCCCO2)c(F)c1 (stereo not drawn) [Example 133] then?
Ans: 11600

Q: Try this compound next: Cn1ncc(-c2ccccc2)c1Oc1ccc(S(=O)(=O)Nc2ncc(Cl)s2)cc1C#N [Example 138]
Ans: 38700

Q: Same lookup for N#Cc1cc(S(=O)(=O)Nc2nccs2)ccc1Oc1ccc(-n2ccc(C(F)(F)F)n2)cc1 [Example 183] , please.
Ans: 990

Q: Same thing, different compound: CC(C)(C)n1nc(Cc2ccc(Cl)cc2)cc1Oc1ccc(S(=O)(=O)Nc2nccs2)cc1F [Example 240]
Ans: 1980

Q: Request: O=S(=O)(Nc1ncns1)c1ccc(Oc2ccccc2-c2ccccc2)c(Cl)c1 [Example 150]
Ans: 190

Q: # iterate: O=S(=O)(Nc1ncns1)c1ccc(Oc2ccc(-c3ccccc3)cc2)c(Cl)c1 [Example 149]
Ans: 920

Q: What about this compound? N#Cc1cc(S(=O)(=O)Nc2ccncn2)ccc1Oc1ccccc1-c1ccccc1 [Example 106]
Ans: 4160

Q: Now try COc1cc(C)ccc1Oc1cccc(F)c1Oc1ccc(S(=O)(=O)Nc2ncns2)cc1C#N [Example 75] .
Ans: 3340

Q: // same read-out, input: O=S(=O)(Nc1ncns1)c1ccc(Oc2ccccc2-c2ccccc2)c(F)c1F [Example 269]
Ans: 480

Q: Then N#Cc1cc(S(=O)(=O)Nc2ncns2)ccc1Oc1cc(C(F)(F)F)nn1-c1ccc(F)cc1F [Example 58] ?
Ans: 340

Q: Then this compound: Cn1ncc(F)c1-c1cc(Cl)ccc1Oc1ccc(S(=O)(=O)Nc2nccs2)cc1C#N [Example 196]
Ans: 30

Q: Next: N#Cc1cc(S(=O)(=O)Nc2ncns2)ccc1Oc1ccccc1Oc1ccncc1 [Example 63]
Ans: 2350

Q: Entry to check: N#Cc1cc(S(=O)(=O)Nc2ncns2)ccc1Oc1ccccc1-c1ccccc1 [Example 24]
Ans: 110

Q: What do we get for N#Cc1cc(S(=O)(=O)Nc2ncns2)ccc1Oc1ccccc1-c1ccccc1F [Example 50] ?
Ans: 840

Q: Another compound to look at: Cc1ccc(Oc2ccc(S(=O)(=O)Nc3nccs3)cc2F)c(-c2c(C)cnn2C(C)(C)C)c1 [Example 223]
Ans: 1510

Q: Entry to check: O=S(=O)(Nc1ncns1)c1ccc(Oc2cc(C(F)(F)F)nn2-c2ccccc2F)c(F)c1 [Example 255]
Ans: 490

Q: How about this compound: COc1cc(S(=O)(=O)Nc2ncns2)ccc1Oc1ccn(Cc2ccc(Cl)cc2)n1 [Example 259]
Ans: 16500

Q: // query: Cc1cn(Cc2ccccc2)nc1Oc1ccc(S(=O)(=O)Nc2ncc(Cl)s2)cc1C#N [Example 139]
Ans: 5000

Q: Cc1csc(NS(=O)(=O)c2ccc(Oc3ccccc3-c3ccccc3)c(C#N)c2)n1 [Example 101] , same question.
Ans: 1580

----------
For each of the compounds below, state its IC50.
biological target: Nav1.7 (or SCN9A) channel; HEK cells stably transfected with hSCN9A (Homo sapiens, UniProt Q15858); construct: expressed in transfected cells; experiment: Nav1.7 block, PatchXpress 7000 automated whole-cell voltage clamp, estimated IC50 (EIC50); type: cell-based; conditions: estimated IC50; hSCN9A HEK cells, PatchXpress platform; Examples 815-1040
Sequence (Q15858 whole entry): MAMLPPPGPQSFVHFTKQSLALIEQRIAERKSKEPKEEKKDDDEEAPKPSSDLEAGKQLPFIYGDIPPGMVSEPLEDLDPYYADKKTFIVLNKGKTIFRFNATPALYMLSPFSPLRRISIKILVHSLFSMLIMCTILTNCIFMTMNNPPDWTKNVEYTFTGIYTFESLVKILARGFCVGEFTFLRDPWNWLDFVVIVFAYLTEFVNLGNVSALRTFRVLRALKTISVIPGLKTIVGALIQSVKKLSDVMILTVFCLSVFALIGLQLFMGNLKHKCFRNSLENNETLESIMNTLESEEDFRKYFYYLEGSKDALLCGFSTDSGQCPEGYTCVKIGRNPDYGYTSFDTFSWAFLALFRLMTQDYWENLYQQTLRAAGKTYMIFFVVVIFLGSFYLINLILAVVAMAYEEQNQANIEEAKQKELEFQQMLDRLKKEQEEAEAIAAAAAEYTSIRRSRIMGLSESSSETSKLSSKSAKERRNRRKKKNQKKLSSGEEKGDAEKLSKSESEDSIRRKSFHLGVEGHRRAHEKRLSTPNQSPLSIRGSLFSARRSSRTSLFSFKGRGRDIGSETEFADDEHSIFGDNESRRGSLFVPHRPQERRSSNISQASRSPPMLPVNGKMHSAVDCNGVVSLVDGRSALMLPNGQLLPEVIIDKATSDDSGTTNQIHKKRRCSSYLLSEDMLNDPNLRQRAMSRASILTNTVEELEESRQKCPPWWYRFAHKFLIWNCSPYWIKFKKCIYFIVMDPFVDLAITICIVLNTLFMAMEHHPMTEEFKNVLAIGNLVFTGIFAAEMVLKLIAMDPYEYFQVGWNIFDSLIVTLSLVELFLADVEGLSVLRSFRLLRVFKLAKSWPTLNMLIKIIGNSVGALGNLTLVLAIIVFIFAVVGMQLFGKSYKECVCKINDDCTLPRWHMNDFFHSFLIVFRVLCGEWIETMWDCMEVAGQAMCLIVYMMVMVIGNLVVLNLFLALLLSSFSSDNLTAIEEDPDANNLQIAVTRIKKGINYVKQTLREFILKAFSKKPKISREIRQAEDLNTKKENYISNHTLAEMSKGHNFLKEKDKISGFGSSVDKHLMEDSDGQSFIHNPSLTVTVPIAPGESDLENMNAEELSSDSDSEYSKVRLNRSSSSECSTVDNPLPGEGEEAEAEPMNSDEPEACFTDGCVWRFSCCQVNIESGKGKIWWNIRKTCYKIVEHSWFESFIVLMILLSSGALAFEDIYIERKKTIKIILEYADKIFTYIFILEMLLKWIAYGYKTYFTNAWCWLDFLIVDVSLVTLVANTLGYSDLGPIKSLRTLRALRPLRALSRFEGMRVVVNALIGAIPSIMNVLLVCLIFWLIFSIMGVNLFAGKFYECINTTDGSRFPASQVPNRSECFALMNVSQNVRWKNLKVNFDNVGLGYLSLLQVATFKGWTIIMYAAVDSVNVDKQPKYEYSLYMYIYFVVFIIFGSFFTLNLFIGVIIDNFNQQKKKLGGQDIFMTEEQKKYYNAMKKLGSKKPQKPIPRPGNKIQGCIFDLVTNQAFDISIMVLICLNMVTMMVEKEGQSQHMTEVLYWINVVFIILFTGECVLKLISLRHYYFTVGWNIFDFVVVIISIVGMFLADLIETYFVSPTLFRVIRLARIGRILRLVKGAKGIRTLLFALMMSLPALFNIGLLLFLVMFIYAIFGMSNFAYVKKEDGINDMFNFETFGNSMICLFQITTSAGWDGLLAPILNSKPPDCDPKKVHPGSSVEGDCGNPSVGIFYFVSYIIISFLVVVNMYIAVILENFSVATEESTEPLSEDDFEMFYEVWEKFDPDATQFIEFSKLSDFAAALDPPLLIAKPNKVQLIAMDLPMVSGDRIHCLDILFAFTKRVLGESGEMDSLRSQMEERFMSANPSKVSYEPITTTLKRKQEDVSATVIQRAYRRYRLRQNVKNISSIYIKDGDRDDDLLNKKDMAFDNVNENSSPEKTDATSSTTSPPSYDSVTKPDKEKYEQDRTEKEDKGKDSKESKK
// units = µM; emit number, no label

Q: Give the measured IC50 of `Nc1cc(-c2cc(F)ccc2Oc2cc(F)c(S(=O)(=O)Nc3ncns3)cc2Cl)[nH]n1` .
Ans: 0.052

Q: Can you check `N#Cc1cc(S(=O)(=O)Nc2ncc(Cl)s2)ccc1Oc1cc(F)ccc1-c1ccn[nH]1` next?
Ans: 0.54

Q: Request: `N#Cc1cc(S(=O)(=O)Nc2ncns2)ccc1Oc1cc(C(F)(F)F)c(F)cc1-c1ccnnc1`
Ans: 0.011

Q: Here is the next compound: `CCN1CC(n2nccc2-c2cc(Cl)ccc2Oc2cc(F)c(S(=O)(=O)Nc3ncns3)cc2F)C1`
Ans: 0.0015

Q: // next record `CCOc1n[nH]cc1-c1cc(Cl)ccc1Oc1cc(F)c(S(=O)(=O)Nc2cscn2)cc1F`
Ans: 0.56

Q: Likewise for `N#Cc1cc(S(=O)(=O)Nc2ncns2)ccc1Oc1ccc(F)cc1C1CCOCC1` ?
Ans: 0.096

Q: Proceed to `N#Cc1ccc(Oc2cc(F)c(S(=O)(=O)Nc3nncs3)cc2Cl)c(-c2ccnnc2)c1`
Ans: 0.66

Q: Okay, and `O=S(=O)(Nc1ncns1)c1ccc(Oc2cc(F)c(Cl)cc2-c2ccnnc2)c(F)c1` ?
Ans: 0.23

Q: Next compound up: `N#Cc1cc(S(=O)(=O)Nc2ncns2)ccc1Oc1ccc(Cl)cc1-c1ccnnc1`
Ans: 0.015

Q: Now try `Nc1cc(-c2cc(F)ccc2Oc2cc(F)c(S(=O)(=O)Nc3ccncn3)cc2Cl)ccn1` .
Ans: 0.025

Q: And `O=S(=O)(Nc1ncns1)c1cc(Cl)c(Oc2ccc(OC(F)(F)F)cc2-c2ccnnc2)cc1F` ?
Ans: 0.0021

Q: Same thing, different compound: `N#Cc1cc(S(=O)(=O)Nc2ncns2)ccc1Oc1ccc(Cl)cc1-c1cccc(CN2CC(CO)(CO)C2)c1`
Ans: 0.0014

Q: Then what about the compound `N#Cc1cc(S(=O)(=O)Nc2ncns2)ccc1Oc1ccc(Cl)cc1-c1ccnc(N2CCNCC2)n1` ?
Ans: 0.0007

Q: Same question, `N#Cc1cc(S(=O)(=O)Nc2ncns2)ccc1Oc1ccc(Cl)cc1-c1cccc(CC(=O)O)c1` this time
Ans: 0.13

Q: // same read-out, input: `N#Cc1cc(S(=O)(=O)Nc2nncs2)ccc1Oc1ccc(Cl)cc1-c1ccnc(N2CCOCC2)c1`
Ans: 0.018
